Below, each entry is listed alongside its reported pIC50.
# Subject of test: UniProt P03956
# Sequence (P03956 whole entry): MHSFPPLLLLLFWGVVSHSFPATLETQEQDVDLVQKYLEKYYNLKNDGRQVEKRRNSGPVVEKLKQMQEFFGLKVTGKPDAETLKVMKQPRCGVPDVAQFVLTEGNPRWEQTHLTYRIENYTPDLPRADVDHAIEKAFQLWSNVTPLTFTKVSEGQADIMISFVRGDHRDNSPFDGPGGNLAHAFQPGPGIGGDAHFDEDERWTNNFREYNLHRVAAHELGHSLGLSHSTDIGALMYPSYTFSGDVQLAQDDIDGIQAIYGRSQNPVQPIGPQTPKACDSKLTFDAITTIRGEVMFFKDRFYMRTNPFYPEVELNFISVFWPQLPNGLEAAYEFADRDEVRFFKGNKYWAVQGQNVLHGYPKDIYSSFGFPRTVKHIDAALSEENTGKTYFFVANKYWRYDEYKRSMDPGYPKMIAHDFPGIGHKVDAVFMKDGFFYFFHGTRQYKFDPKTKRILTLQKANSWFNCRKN
# Test protocol: Inhibition of rat skin type I collagen degradation by purified human lung fibroblast collagenase
pIC50: −log10 of the molar value.
Experimental readout: pIC50

Molecule	Measured number
CNC(=O)[C@H](Cc1ccc(OC)cc1)NC(=O)C(CC(C)C)C(C)S (some centres not stated)	7.77
CNC(=O)[C@H](Cc1c[nH]c2ccccc12)NC(=O)C(CC(C)C)C(S)CC(=O)OC (stereo in doubt; 56b)	6.09
CNC(=O)[C@H](Cc1c[nH]c2ccccc12)NC(=O)[C@H](CC(C)C)[C@H](CC(=O)OC)SC(C)=O	7.72
CNC(=O)[C@H](Cc1c[nH]c2ccccc12)NC(=O)[C@H](CC(C)C)[C@H](CC(=O)OC)SS[C@@H](CC(=O)OC)[C@@H](CC(C)C)C(=O)N[C@@H](Cc1c[nH]c2ccccc12)C(=O)NC	7.66
CNC(=O)[C@H](Cc1c[nH]c2ccccc12)NC(=O)C(CC(C)C)C(S)CC(=O)OC (stereo in doubt; 56c)	6.14
CNC(=O)[C@H](Cc1c[nH]c2ccccc12)NC(=O)[C@@H](CC(C)C)[C@H](S)CC(=O)OC	7.92
CNC(=O)[C@H](Cc1c[nH]c2ccccc12)NC(=O)[C@H](CC(C)C)[C@@H](S)CC(=O)OC	8.60

meta.source: ChEMBL document CHEMBL1126554
